molecular target: human adenosine A2a receptor (Homo sapiens, UniProt P29274); experiment: Adenosine A2a Receptor Functional Assay (A2AGAL2); settings: CHO-K1 cells, cAMP inducible beta-galactosidase reporter, 15 nM NECA agonist challenge
Sequence (P29274 whole entry): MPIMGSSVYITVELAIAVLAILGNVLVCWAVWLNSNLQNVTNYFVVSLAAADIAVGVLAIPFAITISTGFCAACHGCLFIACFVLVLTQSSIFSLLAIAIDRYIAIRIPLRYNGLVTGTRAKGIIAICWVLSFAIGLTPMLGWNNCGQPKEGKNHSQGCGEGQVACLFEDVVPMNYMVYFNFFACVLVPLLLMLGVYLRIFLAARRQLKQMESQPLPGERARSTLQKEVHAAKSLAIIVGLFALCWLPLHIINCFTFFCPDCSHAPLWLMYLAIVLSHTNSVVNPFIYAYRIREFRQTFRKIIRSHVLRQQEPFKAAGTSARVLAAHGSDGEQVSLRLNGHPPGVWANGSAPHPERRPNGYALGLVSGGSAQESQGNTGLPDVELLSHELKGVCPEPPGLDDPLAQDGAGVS
property: Ki (nM)

CC(C)(C)N1CCN(C(=O)c2cc3c(N)nc(-c4cccc(C#N)c4)nc3s2)CC1 94.2
Nc1nc(-c2ncco2)nc2sc(C(=O)NC3CCOCC3)cc12 99.2
Nc1nc(-c2nccs2)nc2sc(C(=O)N3CCOCC3)cc12 80.9

----------
target: UniProtKB P30542; test: Adenosine A1 Receptor Functional Assay (A1GAL2); settings: CHO-K1 cells, cAMP inducible beta-galactosidase reporter, 4nM r-PIA/1 uM Forskolin agonist challenge
Sequence (P30542 whole entry): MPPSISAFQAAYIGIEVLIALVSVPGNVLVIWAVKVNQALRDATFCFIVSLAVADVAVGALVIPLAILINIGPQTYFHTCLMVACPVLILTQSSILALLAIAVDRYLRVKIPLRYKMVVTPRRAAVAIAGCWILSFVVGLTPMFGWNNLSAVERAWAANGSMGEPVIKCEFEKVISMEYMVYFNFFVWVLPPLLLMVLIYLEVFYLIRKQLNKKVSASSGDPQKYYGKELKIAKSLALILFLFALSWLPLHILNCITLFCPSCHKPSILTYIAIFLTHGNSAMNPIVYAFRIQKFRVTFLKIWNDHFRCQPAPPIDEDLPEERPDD
property: Ki

Illustrative cases are given below, each with its answer.
molecule	property	meas value
Cc1csc(-c2nc(N)c3cc(C(=O)NCCN4CCS(=O)(=O)CC4)sc3n2)n1 [Example 7]	Ki	~0.927 µM
Nc1nc(-c2ncco2)nc2sc(C(=O)N3CCOCC3)cc12 [Example 6]	Ki	> 10 µM

Input line: Respond only with Ki recorded for Cc1csc(-c2nc(N)c3cc(C(=O)N4CCN(Cc5ccccn5)CC4)sc3n2)n1 [Example 28]
Output line: > 1.04 µM

Input line: Respond only with Ki recorded for Nc1nc(-c2ncco2)nc2sc(C(=O)NCCN3CCOCC3)cc12 [Example 25]
Output line: > 1.31 µM

Input line: Respond only with Ki recorded for Cc1cc(-c2nc(N)c3cc(C(=O)N4CCOCC4)sc3n2)no1 [Example 17]
Output line: > 0.923 µM

Input line: Respond only with Ki recorded for Nc1nc(-c2ccc(C3CC3)o2)nc2sc(C(=O)N3CCOCC3)cc12 [Example 29]
Output line: > 1.07 µM

Input line: Respond only with Ki recorded for Nc1nc(-c2ncco2)nc2sc(C(=O)NC3CCOCC3)cc12 [Example 13]
Output line: > 1 µM
